Molecular target: T1, 4H2576-bH
T1 chain: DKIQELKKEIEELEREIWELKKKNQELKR
Assay: two-hybrid library CCNG1;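 also: natural log of median RNA to DNA barcode read ratio; higher means stronger binding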
EXPERIMENTAL_READOUT: interaction score

Here's what some known entries look like.
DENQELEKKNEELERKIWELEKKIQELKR [4H1446-bH]	0.59
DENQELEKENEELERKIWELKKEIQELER [4H1193-bH]	1.19
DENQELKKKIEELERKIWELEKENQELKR [4H1828-bH]	-1.69

1. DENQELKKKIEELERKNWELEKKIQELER [4H1845-bH]
2. DENQELEKKIEELKRENWELKKEIQELER [4H1369-bH]
3. DENQELEKKIEELERKIWELKKKNQELKR [4H1328-bH]
Q. Sort the 3 binders by interaction score; largest first, smallest last. Order the labels as requested and list them.
A. 3, 2, 1
(3: 1.67, 2: -0.848, 1: -1.7)
